The reported numbers originate from the supplement of paper PMC10567573.

B1: WDR41 (parent)
chain: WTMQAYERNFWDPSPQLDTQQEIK

variants of: B1; assay: protein stability index of a GFP-peptide fusion (GPS, HEK-293T) (PSI 1-6); higher = more stable; details: c terminus: a fixed tail appended;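 also: lentivirally expressed fusions sorted by FACS into six bins by GFP to DsRed ratio, PSI derived from sequencing read proportions per bin multiplied by bin number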
property: protein stability index
Kindly provide the number alone.

Enquiry: Which protein stability index reading was recorded for the variant W1A ?
Return: 3.77

Enquiry: Which protein stability index reading was recorded for the variant E7L ?
Return: 3.28

Enquiry: Which protein stability index reading was recorded for the variant E22R ?
Return: 2.15
